# system.under.test: T1, Twinkle NTD (Homo sapiens, UniProt Q96RR1 43-372)
# T1 sequence: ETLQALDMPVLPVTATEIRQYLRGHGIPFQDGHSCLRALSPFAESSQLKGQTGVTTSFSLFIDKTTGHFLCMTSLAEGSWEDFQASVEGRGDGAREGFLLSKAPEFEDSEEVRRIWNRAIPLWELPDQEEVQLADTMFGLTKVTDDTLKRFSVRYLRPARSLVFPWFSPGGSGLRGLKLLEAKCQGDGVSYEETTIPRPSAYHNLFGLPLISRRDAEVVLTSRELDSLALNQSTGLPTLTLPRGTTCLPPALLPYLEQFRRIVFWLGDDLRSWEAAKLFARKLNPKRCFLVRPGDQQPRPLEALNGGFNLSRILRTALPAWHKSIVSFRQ
# experimental.details: fluorescence anisotropy; no NaCl added; tight phase of two-site fit; 50 mM Tris acetate pH 7.5, 10% glycerol, 0.05% Tween-20, 0.5 mM DTT, 0 or 50 mM NaCl; 2.5 nM DNA; no Mg2+ or nucleotide listed; temperature not stated
# applied.conditions: protein: recombinant; tags: SUMO tag removed (ULP1); label: 3' fluorescein-T; single strand
Kd values by entry
Reply with the number and its unit after it.

| binder | readout.type | value.reported |
| --- | --- | --- |
| TGCTATAACTCTTGAACACT (ssDNA) [20 nt ssDNA] | Kd | 18 nM |

Then there is this binder:
// query Which value of Kd has been reported for TGTGTTAGTTGGGGGGTGACTGTTAAAAGT (ssDNA) [30 nt ssDNA] in the records?
// result 17.5 nM

These entries and their values trace back to paper PMC9860392.
